This collection of values is drawn from ChEMBL document CHEMBL5375991.

test: Stability in human plasma measured after 4 hrs; type: ADME, cell-free; conditions: read-out: Stability
MEASURED PROPERTY: remaining at 4 h (%)
Numbers only, in %.

Request: Record request: remaining at 4 h value, item "CCC[N+]1=C(/C=C/C2=C3Oc4cc(NC(=O)O[C@@H]5/C=C/CCCCC5)ccc4C=C3CCC2)C(C)(C)c2ccccc21"
Result: 77
